Tested on: AncSZ;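 also: 11-residue human phosphosite peptides and single-mutation variants displayed on the E. coli surface, counted by deep sequencing, each peptide's frequency after selection divided by its frequency in the unselected input library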;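 also: frequency after pTyr selection over input frequency; kinase dosed for 20-30% of maximal phosphorylation in three min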
Experiment: phosphorylation enrichment, bacterial display (enrichment ratio); higher = better substrate or ligand; peptides without Tyr show the background
Entries annotated with measured phosphorylation enrichment
Write no unit; give the number alone.

Examples with their reported phosphorylation enrichment follow.
residue_sequence	phosphorylation enrichment
LERYIYNREEY [HLA-DPB1_Y59_F64Y]	1.08
PADCRYFAFPQ [GAMT_Y222_YF]	1.35

Record VNYGAYINDFK [GLB1_Y488] , field phosphorylation enrichment: 0.773

###

Target: c-Src SH2;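 also: peptide library displayed on the E. coli surface as eCPX fusions, selected cells deep-sequenced, score is each peptide's frequency after selection divided by its frequency in the input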
Experiment: SH2 binding enrichment of the phosphorylated peptide, bacterial display (enrichment ratio); higher = better substrate or ligand; peptides without Tyr show the background
Lab note: anything with SH2 binding enrichment at or over 0.5 counts as Y; the rest go in N.

These recorded examples may help you get a feel for the data.
residue_sequence	assigned_label
ALMGPYHGQVL [HADHA_Y343_L342P]	N
RKLASYQSCLL [DHX37_Y1080_R1081Q]	Y
GVSFIYTIDGS [DCX_Y105_R102S_YF]	Y
KVQVSYKGDTK [HSPA1A_Y107_E110D]	Y

Does LSFSEYASVQV [SIRPA_Y496_P491L] have a reported SH2 binding enrichment of at least 0.5? Y

Does HNLPIYEGYAL [ACTA1_Y168_V165L] have a reported SH2 binding enrichment of at least 0.5? Y

Measured values drawn from the supplement of paper PMC10065799 for this set.
